Data credit: paper PMC9352680

subject-of-test: T1, PUF4 RNA-binding domain (Saccharomyces cerevisiae, UniProt P25339 537-888)
T1 sequence: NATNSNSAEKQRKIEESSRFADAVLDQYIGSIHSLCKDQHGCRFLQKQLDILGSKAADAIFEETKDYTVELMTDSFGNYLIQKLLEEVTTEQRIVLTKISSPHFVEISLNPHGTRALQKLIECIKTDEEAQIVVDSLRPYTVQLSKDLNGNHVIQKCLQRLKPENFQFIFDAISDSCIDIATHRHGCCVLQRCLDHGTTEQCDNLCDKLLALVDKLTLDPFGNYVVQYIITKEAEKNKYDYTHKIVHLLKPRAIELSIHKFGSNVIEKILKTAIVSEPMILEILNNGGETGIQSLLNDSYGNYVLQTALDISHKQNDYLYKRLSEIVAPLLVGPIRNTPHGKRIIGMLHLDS
method: Mg; RNA-MaP; 20 mM Na-HEPES pH 7.4, 30 mM KOAc, 0.75 mM MgCl2, 0.1% Tween-20, 5% glycerol, 0.1 mg/mL BSA, 2 mM DTT; 25 C; 0.0125-409.6 nM protein
stated-conditions: tags: N-His6-TEV cleaved; C-SNAP kept, Cy3B-labelled; label: tethered on chip by stalled RNA polymerase
readout-type: pKd
# log scale: pKd equals minus log10 of the concentration in mol/L

-- ask Which pKd value is on record for Ic_S4_P4E.1_K4.1_C4.1_H4.1_A4.1_[A6C]_[T7C]_F4.1_[T8A]_T4.1 (ssRNA) RNA: UUUGACAACUGAUCGUUCUUUCUUGUAUCCAAUUCUUUCUCGAUCAGUUGUCUUU ?
-- reply 6.24

-- ask Fill in: pKd of Ic_S4_P5E.1_K5.1_C5.1_H5.1_A5.1_[A7T]_F5.1_[T8C]_[T9G]_[A10T]_T5.1 (ssRNA) RNA: UUUGACAACUGAUCGUUCUUUCUUGUAUUUCGUUUCUUUCUCGAUCAGUUGUCUUU is ___
-- reply 7.21

-- ask // pKd lookup, key: UCUCUUUGUUCUAUUAUUAUCUCUU (ssRNA) [Ie_S1_P5E.1_K5.1_C5.1_H5.1_[+3TCT]_A5.1_F5.1_T5.1]
-- reply 7.48

-- ask Sample Id_ii_S4_P4E.2_K4.1_C4.2_[C-2A]_[T-1A]_H4.1_A4.1_F4.1_T4.2_[G10A] (ssRNA) RNA: UUUGACAACUGAUCGUUCUUUCUAAUGUAUAUUAAUUUCUUUCUCGAUCAGUUGUCUUU — what was its pKd?
-- reply 8.86
